# key: entry, value: % Inhibition of T cell blast formation
- Test system: T cell blast formation in human blood
- experiment_summary: In vitro inhibition of T cell blast formation in human blood (human whole blood blast formation, PHA stimulated, flow cytometry)
- Format: cell-based
- reported_conditions: Test Dose 1 × 10^−6 (unit not given), 72 hours, mean where multiple measurements
property_measured: % Inhibition of T cell blast formation (%)

[[record]]
compound = "Cn1cnc2cc(NC(c3ccccc3)c3ccc(NC(=O)C4CC(c5cccnc5)=NO4)cc3)ccc21 (stereo not drawn) [Compound 101]"
system_tested = "T cell blast formation in human blood"
property_measured = "% Inhibition of T cell blast formation"
measured_value = 70

[[record]]
compound = "CC(O)(c1ccccc1)c1ccc(NC(=O)C2CC(c3cccnc3)=NO2)cc1 (stereo not drawn) [Compound 411]"
system_tested = "T cell blast formation in human blood"
property_measured = "% Inhibition of T cell blast formation"
measured_value = 77

[[record]]
compound = "COCCOC(c1ccccc1)c1ccc(NC(=O)C2CC(c3cccnc3)=NO2)cc1 (stereo not drawn) [Compound 416]"
system_tested = "T cell blast formation in human blood"
property_measured = "% Inhibition of T cell blast formation"
measured_value = 87

[[record]]
compound = "O=C(Nc1ccc(C(c2ccccc2)N2CCOCC2)cc1)C1CC(c2cccnc2)=NO1 (stereo not drawn) [Compound 221]"
system_tested = "T cell blast formation in human blood"
property_measured = "% Inhibition of T cell blast formation"
measured_value = 63

[[record]]
compound = "O=C(Nc1ccc(C(Nc2cccc(Cl)c2)c2ccccc2)cc1)C1CC(c2cccnc2)=NO1 (stereo not drawn) [Compound 216]"
system_tested = "T cell blast formation in human blood"
property_measured = "% Inhibition of T cell blast formation"
measured_value = 70

[[record]]
compound = "O=C(c1ccc(NC(=O)C2CC(c3cccnc3)=NO2)cc1)c1ccccc1Cl (stereo not drawn) [Compound 14]"
system_tested = "T cell blast formation in human blood"
property_measured = "% Inhibition of T cell blast formation"
measured_value = 78

[[record]]
compound = "CN1CCC(N(C)CC(=O)NC(c2ccccc2)c2ccc(NC(=O)C3CC(c4cccnc4)=NO3)cc2)CC1 (stereo not drawn) [Compound 146]"
system_tested = "T cell blast formation in human blood"
property_measured = "% Inhibition of T cell blast formation"
measured_value = 95

[[record]]
compound = "Cc1ccc(CNC(=O)c2ccc(NC(=O)C3CC(c4cccnc4)=NO3)cc2)cc1 (stereo not drawn) [Compound 273]"
system_tested = "T cell blast formation in human blood"
property_measured = "% Inhibition of T cell blast formation"
measured_value = 62

[[record]]
compound = "CCOc1ccc(C)c(NC(c2ccccc2)c2ccc(NC(=O)C3CC(c4cccnc4)=NO3)cc2)c1 (stereo not drawn) [Compound 172]"
system_tested = "T cell blast formation in human blood"
property_measured = "% Inhibition of T cell blast formation"
measured_value = 35

[[record]]
compound = "Cc1cccc(C(=O)c2ccc(NC(=O)C3CC(c4cccnc4)=NO3)cc2)c1 (stereo not drawn) [Compound 10]"
system_tested = "T cell blast formation in human blood"
property_measured = "% Inhibition of T cell blast formation"
measured_value = 75

[[record]]
compound = "O=C(Nc1ccc(C(Nc2ccccc2O)c2ccccc2)cc1)C1CC(c2cccnc2)=NO1 (stereo not drawn) [Compound 203]"
system_tested = "T cell blast formation in human blood"
property_measured = "% Inhibition of T cell blast formation"
measured_value = 62

[[record]]
compound = "O=C(Cc1ccccc1)NC(c1ccccc1)c1ccc(NC(=O)C2CC(c3cccnc3)=NO2)cc1 (stereo not drawn) [Compound 166]"
system_tested = "T cell blast formation in human blood"
property_measured = "% Inhibition of T cell blast formation"
measured_value = 66

[[record]]
compound = "O=C(c1ccc(NC(=O)C2CC(c3cccnc3)=NO2)cc1)c1ccc2ccccc2n1 (stereo not drawn) [Compound 392]"
system_tested = "T cell blast formation in human blood"
property_measured = "% Inhibition of T cell blast formation"
measured_value = 80

[[record]]
compound = "CCCC(=O)NC(c1ccccc1)c1ccc(NC(=O)C2CC(c3cccnc3)=NO2)cc1 (stereo not drawn) [Compound 156]"
system_tested = "T cell blast formation in human blood"
property_measured = "% Inhibition of T cell blast formation"
measured_value = 56

[[record]]
compound = "COc1ccc(CNC(=O)c2ccc(NC(=O)C3CC(c4cccnc4)=NO3)cc2)cc1 (stereo not drawn) [Compound 290]"
system_tested = "T cell blast formation in human blood"
property_measured = "% Inhibition of T cell blast formation"
measured_value = 67

[[record]]
compound = "O=C(Nc1ccc(C(=NO)c2cnc3ccccc3c2)cc1)C1CC(c2cccnc2)=NO1 (stereo not drawn) [Compound 432]"
system_tested = "T cell blast formation in human blood"
property_measured = "% Inhibition of T cell blast formation"
measured_value = 65

[[record]]
compound = "CN1CCC(NC(c2ccccc2)c2ccc(NC(=O)C3CC(c4cccnc4)=NO3)cc2)CC1 (stereo not drawn) [Compound 102]"
system_tested = "T cell blast formation in human blood"
property_measured = "% Inhibition of T cell blast formation"
measured_value = 66

[[record]]
compound = "O=C(NCc1c(F)cccc1F)c1ccc(NC(=O)C2CC(c3cccnc3)=NO2)cc1 (stereo not drawn) [Compound 279]"
system_tested = "T cell blast formation in human blood"
property_measured = "% Inhibition of T cell blast formation"
measured_value = 74


###

- Tested on: T cell blast formation in human blood
- experiment_summary: In vitro inhibition of T cell blast formation in human blood (human whole blood blast formation, PHA stimulated, flow cytometry)
- Assay type: cell-based
- reported_conditions: Test Dose 1 × 10^−6 (unit not given), 72 hours, mean where multiple measurements
// thresholds for % Inhibition of T cell blast formation classes: category 1: < 60%; category 2: ≥ 60% and < 80%; category 3: ≥ 80%

[[record]]
compound = "O=C(Nc1ccc(C(Nc2ccc3[nH]nnc3c2)c2ccccc2)cc1)C1CC(c2cccnc2)=NO1 (stereo not drawn)"
class_label = "category 1"

[[record]]
compound = "N#CC(OC(=O)c1ccccc1)(c1ccccc1)c1ccc(NC(=O)C2CC(c3cccnc3)=NO2)cc1 (stereo not drawn)"
class_label = "category 2"

[[record]]
compound = "O=C(c1ccc(NC(=O)C2CC(c3cccnc3)=NO2)cc1)c1ccccn1 (single isomer, unassigned)"
class_label = "category 3"

[[record]]
compound = "NC(=O)C(c1ccc(Cl)cc1)c1ccc(NC(=O)C2CC(c3cccnc3)=NO2)cc1Cl (stereo not drawn)"
class_label = "category 3"

[[record]]
compound = "O=C(Nc1ccc(C(=NO)c2ccccc2)cc1)C1CC(c2cccnc2)=NO1 (single isomer, unassigned)"
class_label = "category 1"

[[record]]
compound = "CCOC(=O)NC(c1ccccc1)c1ccc(NC(=O)C2CC(c3cccnc3)=NO2)cc1 (stereo not drawn)"
class_label = "category 3"

[[record]]
compound = "O=C(NCc1ccccc1Br)c1ccc(NC(=O)C2CC(c3cccnc3)=NO2)cc1 (stereo not drawn)"
class_label = "category 2"

[[record]]
compound = "CC(C)NC(c1ccccc1)c1ccc(NC(=O)C2CC(c3cccnc3)=NO2)cc1 (stereo not drawn)"
class_label = "category 1"

[[record]]
compound = "C=CCOc1ccccc1/C=C/C(=O)c1ccc(NC(=O)C2CC(c3cccnc3)=NO2)cc1 (racemic)"
class_label = "category 3"

[[record]]
compound = "COc1ccccc1CNC(=O)c1ccc(NC(=O)C2CC(c3cccnc3)=NO2)cc1 (stereo not drawn)"
class_label = "category 2"

[[record]]
compound = "O=C(Nc1ccc(-n2cnc3ccccc32)cc1)C1CC(c2cccnc2)=NO1 (stereo not drawn)"
class_label = "category 3"


###

Listed next: entries and their corresponding % Inhibition of T cell blast formation.
- System: T cell blast formation in human blood
- experiment_summary: In vitro inhibition of T cell blast formation in human blood (human whole blood blast formation, PHA stimulated, flow cytometry)
- Type: cell-based
- reported_conditions: Test Dose 1 × 10^−6 (unit not given), 72 hours, mean where multiple measurements
property_measured: % Inhibition of T cell blast formation (%)

[[record]]
compound = "O=C(c1ccccc1)c1ccc(NC(=O)C2CC(c3cccnc3)=NO2)nc1 (centres unmarked)"
property_measured = "% Inhibition of T cell blast formation"
unit = "%"
measured_value = 62

[[record]]
compound = "O=C(c1ccc(F)cc1)c1ccc(NC(=O)C2CC(c3cccnc3)=NO2)cc1 (centres unmarked)"
property_measured = "% Inhibition of T cell blast formation"
unit = "%"
measured_value = 78

[[record]]
compound = "Cc1nc2ccccc2n1-c1ccc(NC(=O)C2CC(c3cccnc3)=NO2)cc1 (centres unmarked)"
property_measured = "% Inhibition of T cell blast formation"
unit = "%"
measured_value = 82

[[record]]
compound = "COc1ccc(OC)c(C(=O)c2ccc(NC(=O)C3CC(c4cccnc4)=NO3)cc2)c1 (centres unmarked)"
property_measured = "% Inhibition of T cell blast formation"
unit = "%"
measured_value = 77

[[record]]
compound = "O=C(c1ccc(NC(=O)C2CC(c3cccnc3)=NO2)cc1)c1cnc2ccccc2c1 (centres unmarked)"
property_measured = "% Inhibition of T cell blast formation"
unit = "%"
measured_value = 69

[[record]]
compound = "COc1cccc(CNC(=O)c2ccc(NC(=O)C3CC(c4cccnc4)=NO3)cc2)c1 (centres unmarked)"
property_measured = "% Inhibition of T cell blast formation"
unit = "%"
measured_value = 67

[[record]]
compound = "COC(C(N)=O)(c1ccccc1)c1ccc(NC(=O)C2CC(c3cccnc3)=NO2)cc1 (centres unmarked)"
property_measured = "% Inhibition of T cell blast formation"
unit = "%"
measured_value = 75

[[record]]
compound = "O=C(Nc1ccc(Nc2ccccc2)cc1)C1CC(c2cccnc2)=NO1 (centres unmarked)"
property_measured = "% Inhibition of T cell blast formation"
unit = "%"
measured_value = 85

[[record]]
compound = "COc1cccc(C(=O)c2ccc(NC(=O)C3CC(c4cccnc4)=NO3)cc2)c1 (centres unmarked)"
property_measured = "% Inhibition of T cell blast formation"
unit = "%"
measured_value = 71

[[record]]
compound = "NC(c1ccccc1)c1ccc(NC(=O)[C@@H]2CC(c3cccnc3)=NO2)cc1 (some centres unmarked) [Compound 205]"
property_measured = "% Inhibition of T cell blast formation"
unit = "%"
measured_value = 73

[[record]]
compound = "CC(C#N)(c1ccccc1)c1ccc(NC(=O)C2CC(c3cccnc3)=NO2)cc1 (centres unmarked)"
property_measured = "% Inhibition of T cell blast formation"
unit = "%"
measured_value = 78

[[record]]
compound = "NC(=O)C(c1ccccc1)c1ccc(NC(=O)C2CC(c3cccnc3)=NO2)cc1 (centres unmarked)"
property_measured = "% Inhibition of T cell blast formation"
unit = "%"
measured_value = 93

[[record]]
compound = "COc1ccccc1C(=O)c1ccc(NC(=O)C2CC(c3cccnc3)=NO2)cc1 (centres unmarked)"
property_measured = "% Inhibition of T cell blast formation"
unit = "%"
measured_value = 85

[[record]]
compound = "COc1cc(C(=O)c2ccc(NC(=O)C3CC(c4cccnc4)=NO3)cc2)cc(OC)c1OC (centres unmarked)"
property_measured = "% Inhibition of T cell blast formation"
unit = "%"
measured_value = 65

[[record]]
compound = "NC(c1ccccc1)c1ccc(NC(=O)[C@@H]2CC(c3cccnc3)=NO2)cc1 (some centres unmarked) [Compound 206]"
property_measured = "% Inhibition of T cell blast formation"
unit = "%"
measured_value = 66

[[record]]
compound = "O=C(Nc1ccc(C(=NO)c2ccccn2)cc1)C1CC(c2cccnc2)=NO1 (centres unmarked)"
property_measured = "% Inhibition of T cell blast formation"
unit = "%"
measured_value = 79

[[record]]
compound = "CON=C(c1ccccc1)c1ccc(NC(=O)C2CC(c3cccnc3)=NO2)cc1 (centres unmarked)"
property_measured = "% Inhibition of T cell blast formation"
unit = "%"
measured_value = 78

